Method Description: basal RPMI8226 viability, no added stimulus, profiling panel, cell-based, calcein-AM fluorescence, 48 h, PK04 Diversity Set (AID 1166);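 also: cells grown under basal conditions without added stimulus; test concentration not given here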
Measurement Conditions: RPMI8226 myeloma viability, higher = more signal
Measure Name: z-score
Kindly provide the number alone.

Query: Would you kindly share the measured z-score for C=CCOC(=O)[C@@H]1[C@H]2C(=O)O[C@H](c3ccccc3)[C@H](c3ccccc3)N2[C@H](c2ccc(OCCOC(=O)[C@H]3C[C@H]4C(=O)N[C@@H](CC(C)C)C(=O)N4[C@H]3c3ccc(O)cc3)cc2)[C@@]12C(=O)Nc1ccc(I)cc12 ?
Response: 1.08

Query: Would you kindly share the measured z-score for COc1ccc([Si](C)(C)[C@H]2[C@H](CCO)O[C@@]3(C(=O)N(Cc4cccc(N5CCCCC5=O)c4)c4ccccc43)[C@@H]2C)cc1 ?
Response: -4.35

Query: Would you kindly share the measured z-score for [N-]=[N+]=NCc1ccccc1C[C@@]1(C(=O)NCCN2CCOCC2)N=C(c2ccc(OCCCO)cc2)O[C@@H]1c1ccccc1N=[N+]=[N-] ?
Response: -3.68

Query: Would you kindly share the measured z-score for Cc1ccc(S[C@]2(C(=O)NCc3ccccc3)CC(=O)N(C(C)C)[C@@H]2c2ccc(CO)cc2I)cc1 ?
Response: -3.15

Query: Would you kindly share the measured z-score for O=C1NC(=O)C2C1C=CC(C(O)c1ccc3c(c1)OCO3)N2Nc1ccccn1 (stereo not drawn) ?
Response: -0.12

Query: Would you kindly share the measured z-score for CCOC(=O)C[C@H]1[C@H](OC(=O)Cc2ccc3c(c2)OCO3)[C@@H](NC(=O)C2CCCCC2)c2cc(OCCCO)ccc2N1C(=O)c1ccc2ccccc2n1 ?
Response: -1.18

Query: Would you kindly share the measured z-score for Cc1ccc(C(C)CC(O)C2C=CC3C(=O)N(c4ccccc4)C(=O)C3N2Nc2ccc(C(C)C)cc2)o1 (stereo not drawn) ?
Response: -1.19

Query: Would you kindly share the measured z-score for [N-]=[N+]=NCc1ccccc1[C@H]1OC(c2ccc(OCCCO)cc2)=N[C@@]1(CCS(=O)(=O)c1ccccc1)C(N)=O ?
Response: -0.973

Query: Would you kindly share the measured z-score for O=C(O)[C@H]1C[C@H]2C(=O)N3CCC[C@H]3C(=O)N2[C@H]1c1cccc(OCCO)c1 ?
Response: -0.8

Query: Would you kindly share the measured z-score for CN(C)CCCCNC(=O)[C@H]1C[C@H]2C(=O)N[C@@H](CCCCN(C)C)C(=O)N2[C@H]1c1cccc(OCCO)c1 ?
Response: 0.495

Query: Would you kindly share the measured z-score for COC(=O)[C@@]1(Cc2ccccc2)[C@H]2c3cc(C(=O)N4CCCC4)n(Cc4cc(F)cc5c4OCOC5)c3C[C@H]2CN1C(=O)c1ccccc1 ?
Response: -0.0133

Query: Would you kindly share the measured z-score for CC(C)(C)OC(=O)CC[C@]1(C(=O)NCCN2CCOCC2)N=C(c2ccc(OCCCO)cc2)O[C@H]1c1ccccc1 ?
Response: -0.51

Query: Would you kindly share the measured z-score for Cc1ccc(S[C@]2(C(=O)NCC(F)(F)F)CC(=O)N(Cc3ccccc3)[C@@H]2c2ccc(CO)cc2)cc1 ?
Response: -1.28

Query: Would you kindly share the measured z-score for CC=CC(O)C1C=CC2C(=O)N(C)C(=O)C2N1N1CCCCC1 (stereo not drawn) ?
Response: -0.922

Query: Would you kindly share the measured z-score for CCOC(=O)C[C@H]1[C@H](OC(=O)c2ccc(-c3ccccc3)cc2)[C@@H](NC(=O)C2CCCCC2)c2cc(OCCCO)ccc2N1C(=O)c1ccccc1 ?
Response: -0.203

Query: Would you kindly share the measured z-score for COCCOC(=O)N1C(=O)[C@@]2(c3cc(C#Cc4ccc(OC)cc4)ccc31)[C@H](C(=O)N1CCN(c3ncccn3)CC1)[C@H]1C(=O)O[C@H](c3ccccc3)[C@H](c3ccccc3)N1[C@@H]2c1ccccc1OCCO ?
Response: 0.204

Query: Would you kindly share the measured z-score for CC(C)C(CO)N1C(=O)[C@]2(C)C3C(=O)OCCC/C=C\[C@H]3OC23C=CCN(c2ccc(Cl)cc2)C(=O)[C@@H]13 (stereo partly drawn) ?
Response: 0.163

Query: Would you kindly share the measured z-score for [N-]=[N+]=Nc1ccccc1C[C@]1(C(=O)NCc2ccccc2)N=C(c2ccc(OCCCO)cc2)O[C@H]1c1ccccc1 ?
Response: -2.86

Query: Would you kindly share the measured z-score for C=CCNC(=O)[C@H]1[C@@H]2C(=O)O[C@@H](c3ccccc3)[C@@H](c3ccccc3)N2[C@@H](c2ccccc2OCCO)[C@]12C(=O)N(C(=O)OCCOC)c1ccc(C#CC3=CCCCC3)cc12 ?
Response: -3.88

Query: Would you kindly share the measured z-score for C=C(CCCC)C(=O)CC[C@@H](OC(=O)c1cccnc1)c1ccccc1OCCO ?
Response: -2.92

Query: Would you kindly share the measured z-score for NC(N)=NCc1cn(CCc2c[nH]c3ccccc23)nn1 ?
Response: -0.286

Query: Would you kindly share the measured z-score for CCOc1cc(C(O)C2C=CC3C(=O)N(C)C(=O)C3N2N2CCCCC2)ccc1O (stereo not drawn) ?
Response: 0.294

Query: Would you kindly share the measured z-score for CC(C)C[C@@H]1NC(=O)[C@H]2C[C@@H](C(=O)NCCCCCC[N+](C)(C)C)[C@@H](c3cccc(OCCO)c3)N2C1=O ?
Response: -0.0361

Query: Would you kindly share the measured z-score for CC(C)CCC[C@@H](C)[C@H]1CC[C@@]2(C)C3=C(CC[C@]12C)[C@@]1(C)CC[C@H](OC(=O)c2ccc(Br)cc2)C(C)(C)C1CC3 (stereo partly drawn) ?
Response: -0.269

Query: Would you kindly share the measured z-score for COCCCNC(=O)[C@]1(CCC(=O)OC(C)(C)C)N=C(c2ccc(OCCCO)cc2)O[C@@H]1c1ccccc1 ?
Response: -0.0674

Query: Would you kindly share the measured z-score for C=CCN1Cc2ccccc2C[C@@]2(N=C(c3ccc(OCCCO)cc3)O[C@H]2c2ccccc2)C1=O ?
Response: -3.95

Query: Would you kindly share the measured z-score for C=CCNC(=O)[C@@H]1[C@H]2C(=O)O[C@H](c3ccccc3)[C@H](c3ccccc3)N2[C@H](c2ccc(OCCO)cc2)[C@@]12C(=O)N(C(=O)OCCOC)c1ccc(C#CC3=CCCCC3)cc12 ?
Response: -1.59

Query: Would you kindly share the measured z-score for C=C(COC)/C(=C/C[C@@H](OC(=O)c1ccncc1)c1cccc(OCCO)c1)c1cnc2ccccc2c1 ?
Response: -0.307
